# setupConditions: buffer; pH 7.4; 200.0 µM
recordedEndpoint: solubility kinetic (µg/mL)
Give a bare numeral; the unit µg/mL is implied.

Req: Data request, read-out solubility kinetic, for `Cc1ccc(Nc2cc(C)c3ccc(O)cc3n2)cc1C.Cl`
Resp: 11.1

Req: Which solubility kinetic reading was recorded for the molecule `O=C(O)c1ccccc1-c1ccccc1C(=O)NCCc1ccccc1` ?
Resp: 50.4

Req: Entry under review: `Cc1ccc(NC(=S)NC(=O)C2CCCC2)c(Br)c1` . Reported solubility kinetic?
Resp: 4.2

Req: Which solubility kinetic is reported for this molecule? `O=C(CNC(=O)c1ccccc1)OCC(=O)c1c[nH]c2ccccc12`
Resp: 18.6

Req: Report solubility kinetic for `CC(C)(C)NC(=O)COC(=O)c1ccccc1C(=O)c1ccccc1` please.
Resp: 43.4
